Test system: Phytophthora infestans
Test: whole plant or invertebrate
Type: in vivo
Details: in Solanum lycopersicum, 168 h, read-out: % Control TLB (Tomato Late Blight)
Classification field: Y = pest or weed control at 250 ppm at or over 50%; N = pest or weed control at 250 ppm under 50%.

For this compound, is measured pest or weed control at 250 ppm 50% or higher? Cc1cc(=O)on1C(=O)c1ccc([N+](=O)[O-])cc1 [Compound 1]
N

Does the compound CCCc1cc(=O)on1C(=O)c1ccc(Cl)cc1Cl [Compound 3] have recorded pest or weed control at 250 ppm that is 50% or more?
N

Check the entry Cc1cc(=O)on1C(=O)c1ccc(Cl)cc1Cl [Compound 2] : does pest or weed control at 250 ppm equal or exceed 50%?
Y

Dear colleague, could you confirm whether Cc1cc(=O)on1C(=O)c1ccc(Cl)cc1[N+](=O)[O-] [Compound 8] has pest or weed control at 250 ppm at or above 50%?
Y

Does pest or weed control at 250 ppm meet or surpass 50% for Cc1cc(=O)on1C(=O)c1ccc([N+](=O)[O-])cc1Cl [Compound 7] ?
N

API: above_or_equal(metric=pest or weed control at 250 ppm, cutoff=50%) for item CC(C)c1cc(=O)on1C(=O)c1ccc(Cl)cc1Cl [Compound 5]
Y
